Reference source for all entries: PubChem BioAssay (NCI)

# Test system: NCI-H322M lung
# assayComment: NCI-60 one-dose screen, 48 h
# conditionDetails: 10 µM unless noted
The panel holds about 83,000 compounds, 20% with a hit somewhere; the sample as a whole holds those more often. Activity calls are given as the source filed them. The calls were made as follows: active = growth percent below 10; inactive = the rest.
Your reply should match one of these outcome classes. 1 (yes) = active, 0 (no) = inactive

{"chemicalStructure": "COc1ncc(-c2ccc3nccc(-c4ccnnc4)c3c2)cc1NS(=O)(=O)c1ccc(F)cc1F", "assignedCategory": "1 (yes)"}
{"chemicalStructure": "CCCCCCCC(=O)SCC/C=C/[C@@H]1CC(=O)NCc2cccc(n2)C2=N[C@@](C)(CS2)C(=O)N[C@@H](C(C)C)C(=O)O1", "assignedCategory": "1 (yes)"}
{"chemicalStructure": "COc1ccc2c(CCCc3ccc(Cl)cc3Cl)c3[n+](cc2c1OC)CCc1cc2c(cc1-3)OCO2", "assignedCategory": "0 (no)"}

Continue with the compound presented below.
Query string: What outcome does the record of this test show for NC1(c2ccc(-c3nc4ccn5c(=O)[nH]nc5c4cc3-c3ccccc3)cc2)CCC1 ?
Result string: 0 (no)

###

# Tested on: RPMI-8226 leukemia
# assayComment: NCI-60 one-dose screen, 48 h (100 = growth as untreated, 0 = no growth, -100 = all killed)
# conditionDetails: 10 µM unless noted
This is part of a sample that, as a whole, favours compounds with a hit. Of some 83,000 tested, about 20% had one in any assay.
Threshold 50%. growth below it: True. growth at it or above: False.

Past entries and their recorded results:
{"compound": "C/C(=C(/c1ccc(Cl)cc1)c1ccc(OCCN2CCCCC2)cc1)c1ccccc1", "assignedCategory": "False"}
{"compound": "CNC(=O)c1c(C)oc2cc(Oc3ncnc4cc(OC)c(OC)cc34)ccc12", "assignedCategory": "False"}
{"compound": "C[C@H]1Oc2cc(cnc2N)-c2c(nn(C)c2C#N)CN(C)C(=O)c2ccc(F)cc21", "assignedCategory": "False"}

Query string: # check: growth < 50% for Cc1cc(N(CCNc2ccnc3cc(Cl)ccc23)Cc2ccc3c(c2)OCO3)nc(N2CCN(C)CC2)n1
Result string: True

Query string: Let us now turn to COc1ccc2c(CCCCC(c3ccccc3)c3ccccc3)c3[n+](cc2c1OC)CCc1cc2c(cc1-3)OCO2
Result string: True

###

# Tested on: SF-539 CNS
# assayComment: NCI-60 one-dose screen, 48 h (100 = growth as untreated, 0 = no growth, -100 = all killed)
# conditionDetails: 10 µM unless noted
The panel holds about 83,000 compounds, 20% with a hit somewhere; the sample as a whole holds those more often.
propertyLabel: growth (%)
Enter your answer as a number in %; do not include the unit.

Query string: Quick one: growth of COc1cc2c(cc1OCCCCCN1CCN(c3ncnc4ccccc34)CC1)N=CC1CCCN1C2=O (stereo unspecified) ?
Result string: -77.3

###

# System: KM12 colon
# assayComment: NCI-60 one-dose screen, 48 h
# conditionDetails: 10 µM unless noted
Compounds without any hit were thinned out: in the full panel of roughly 83,000, 20% have a hit. The source made the active and inactive calls. Rule for the calls: active = growth percent below 10; inactive = the rest.
Thanks in advance; please answer with one of these: active, inactive

Solved cases below.
{"compound": "O=C(Nc1cn[nH]c1-c1nc2ccc(CN3CCOCC3)cc2[nH]1)NC1CC1", "measurementTarget": "KM12 colon", "assignedCategory": "active"}
{"compound": "COC(=O)[C@H](Cc1ccc(O)cc1)NC(=O)[C@@H](OC)[C@@H]1Cc2cc3cc(OC4CC(OC5CC(O)C(O)C(C)O5)C(O)C(C)O4)c(C)c(O)c3c(O)c2C(=O)[C@H]1OC1CC(OC2CC(OC3CC(C)(O)C(O)C(C)O3)C(O)C(C)O2)C(O)C(C)O1 (stereo partly drawn)", "measurementTarget": "KM12 colon", "assignedCategory": "active"}

Okay, next one:
Query string: Fill in: this test's call for CNc1ncc2cc(-c3cc(NC(=O)NCCC(C)(C)C)c(F)cc3C)c(C)nc2n1 is ___
Result string: inactive
